# Protocol Details: Selectivity index, ratio of IC50 for HEK293 cells to IC50 for antitrypanosomal activity against bloodstream Trypanosoma brucei Lister 427
# Assay type: toxicity
# Experimental Setup: human, read-out: Ratio IC50
Readout Kind: selectivity ratio
Give your answer as a number; write no unit.

Prompt: Please report the recorded selectivity ratio for COc1cc(NC(=O)c2ccc(Br)cc2)ccc1S(N)(=O)=O .
Response: 21.7

Prompt: Please do the same for COc1cc(NC(=O)c2cc(C(F)(F)F)cc(C(F)(F)F)c2)ccc1S(N)(=O)=O as well.
Response: 3.11

Prompt: Please do the same for COc1cc(NC(=O)c2ccc(C)cc2)ccc1S(N)(=O)=O as well.
Response: 0.24

Prompt: Please do the same for COc1cc(NC(=O)c2ccc3c(c2)OCO3)ccc1S(N)(=O)=O as well.
Response: 0.81

Prompt: Please do the same for COc1cc(NC(=O)c2ccc(Cl)c(Cl)c2)ccc1S(N)(=O)=O as well.
Response: 0.58

Now for a further molecule.
Prompt: Please report the recorded selectivity ratio for CCc1ccc(C(=O)Nc2ccc(S(N)(=O)=O)c(OC)c2)cc1 .
Response: 0.15
